target: human μ opiate receptor (Homo sapiens, UniProt P35372); construct: purchased PerkinElmer Life Sciences, Zaventem, Belgium RB-HOM; host or cells: CHO-K1 cells (membrane preparation); assay: Affinity for the human μ opiate receptor ([3H]-naloxone displacement, CHO-K1 receptor membrane preparation, SPA); format: binding; settings: test concentration of 1 μM; 1 µM
Sequence (P35372 whole entry): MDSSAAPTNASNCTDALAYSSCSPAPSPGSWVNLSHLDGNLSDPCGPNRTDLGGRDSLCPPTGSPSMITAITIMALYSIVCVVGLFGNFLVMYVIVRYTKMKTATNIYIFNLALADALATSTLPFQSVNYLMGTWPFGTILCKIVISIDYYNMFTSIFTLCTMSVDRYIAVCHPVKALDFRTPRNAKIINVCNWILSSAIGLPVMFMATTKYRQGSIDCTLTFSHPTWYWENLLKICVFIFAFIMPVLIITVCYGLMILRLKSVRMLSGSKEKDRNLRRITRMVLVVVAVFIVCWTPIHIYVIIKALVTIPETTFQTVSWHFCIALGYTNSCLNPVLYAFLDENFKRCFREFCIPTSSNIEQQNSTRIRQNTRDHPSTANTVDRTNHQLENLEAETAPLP
What μ (binding on the μ opioid receptor, % inhibition) was measured for each of the following?
Please state the value followed by its unit.

INSERT INTO results (molecule, result) VALUES
  ('COc1ccc(S(=O)(=O)N2CCCCC2COCC(=O)NCC2CCC(C(CCc3ccccc3)N(C)C)CC2)cc1OC (stereo not shown) [Example 559]', '14%'),
  ('COc1ccc(S(=O)(=O)N2CCCCC2COCC(=O)NCC2CCC(C(CCc3ccccc3)N(C)C)CC2)c(OC)c1 (stereo not shown) [Example 420]', '53%'),
  ('CC(Oc1ccccc1)C(=O)NC1CCC(C(CCc2ccccc2)N(C)C)CC1 (stereo not shown) [Example 577]', '14%');

Shifting focus to the molecule that follows.
Provide the reported μ (binding on the μ opioid receptor, % inhibition) (system: human μ opiate receptor (Homo sapiens, UniProt P35372)) for COc1ccc(S(=O)(=O)N2CCCCC2COCC(=O)NCC2CCC(C(c3ccc(F)cc3)N(C)C)CC2)cc1OC (single isomer, unassigned) [Example 537]
35%

====

Biological target: serotonin (5-HT) reuptake (Rattus norvegicus, UniProt P31652)
Construct: synaptosomes are freshly isolated from areas of the rat brain; from tissue; host or cells: rat brain synaptosomes (P2 fraction)
Sequence (P31652 whole entry): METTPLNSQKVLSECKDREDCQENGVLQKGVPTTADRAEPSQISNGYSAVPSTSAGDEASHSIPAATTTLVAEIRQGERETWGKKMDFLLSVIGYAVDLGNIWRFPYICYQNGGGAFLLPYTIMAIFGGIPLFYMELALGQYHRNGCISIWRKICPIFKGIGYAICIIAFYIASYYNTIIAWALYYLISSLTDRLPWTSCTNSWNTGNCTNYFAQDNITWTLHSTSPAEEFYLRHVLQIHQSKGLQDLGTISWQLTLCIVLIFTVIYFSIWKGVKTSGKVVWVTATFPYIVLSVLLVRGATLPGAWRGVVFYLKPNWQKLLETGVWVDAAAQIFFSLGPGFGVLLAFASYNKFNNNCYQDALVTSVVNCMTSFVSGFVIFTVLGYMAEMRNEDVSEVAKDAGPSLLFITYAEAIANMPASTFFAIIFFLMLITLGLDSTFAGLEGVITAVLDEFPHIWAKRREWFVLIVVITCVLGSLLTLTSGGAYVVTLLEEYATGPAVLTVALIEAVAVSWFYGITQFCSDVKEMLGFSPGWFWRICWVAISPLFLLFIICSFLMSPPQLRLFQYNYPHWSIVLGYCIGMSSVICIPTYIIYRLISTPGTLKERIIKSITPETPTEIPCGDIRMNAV
Assay: Inhibition of serotonin (5HT) reuptake in synaptosomes from rat brain
Type: biochemical
Details: test concentration of 10 μM; 10 µM
Description: Binding data of the compounds on the μ opioid receptor and data on the inhibition of reuptake of serotonin (5-HT) are given in Table 1. The data for the μ receptor were measured at a test concentration of 1 μM, and those for the serotonin reuptake at 10 μM. The values are stated in % inhibition. Inhibition of Serotonin (5HT) Reuptake In order to be able to carry out these in vitro studies, synaptosomes are freshly isolated from areas of the rat brain. […]
What 5-HT (inhibition of reuptake of serotonin, % inhibition) was measured for each of the following?
Answers are plain numbers, in %.

INSERT INTO assay_data (molecule, units, recorded_number) VALUES
  ('COc1ccc(S(=O)(=O)N2CCCCC2COCC(=O)NCC2CCC(C(CCc3ccccc3)N(C)C)CC2)c(OC)c1 (stereo not shown) [Example 420]', '%', 74);

Each molecule below has a recorded value; state its 5-HT (inhibition of reuptake of serotonin, % inhibition).
1. CC(Oc1ccccc1)C(=O)NCC1CCC(C(c2ccc(Cl)cc2)N(C)C)CC1 (single isomer, unassigned) [Example 237]
2. CC(Oc1ccccc1)C(=O)NCC1CCC(C(c2ccc(Cl)cc2)N(C)C)CC1 (single isomer, unassigned) [Example 238]
3. COc1ccc(S(=O)(=O)N2CCCCC2COCC(=O)NCC2CCC(C(c3ccc(F)cc3)N(C)C)CC2)cc1OC (single isomer, unassigned) [Example 534]

[52, 38, 88]

====

What B1R Ant. h [10 μM] % Inhibition was measured for each of the following?
Molecular target: human bradykinin 1 receptor (B1R) (Homo sapiens)
Construct: expressed in transfected cells; host or cells: CHO K1 cells
Sequence (P46663 1-353): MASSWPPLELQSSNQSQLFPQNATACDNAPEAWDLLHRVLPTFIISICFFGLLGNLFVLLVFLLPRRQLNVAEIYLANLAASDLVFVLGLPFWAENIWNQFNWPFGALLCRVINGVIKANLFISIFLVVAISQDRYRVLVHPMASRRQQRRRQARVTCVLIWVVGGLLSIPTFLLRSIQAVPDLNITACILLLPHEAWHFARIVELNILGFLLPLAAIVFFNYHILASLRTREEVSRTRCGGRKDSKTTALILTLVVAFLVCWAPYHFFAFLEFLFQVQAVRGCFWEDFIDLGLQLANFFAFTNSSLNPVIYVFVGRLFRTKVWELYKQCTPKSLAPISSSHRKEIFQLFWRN
Assay: Functional investigation on the human bradykinin 1 receptor (B1R), Ca2+ FLIPR assay in CHO K1 hB1R cells
Type: cell-based
Settings: B1R antagonism human; test substance 10 μM; Ca2+ FLIPR, CHO K1 hB1R cells
Excerpt: Functional Investigation on the Human Bradykinin 1 Receptor (B1R) The agonistic or antagonistic action of substances can be determined on the bradykinin 1 receptor (B1R) of the human species and rats with the following assay. In accordance with this assay, the Ca^2+ inflow through the channel is quantified with the aid of a Ca^2=-sensitive dyestuff (type Fluo-4, Molecular Probes Europe BV, Leiden, Holland) in a fluorescent imaging plate reader (FLIPR, Molecular Devices, Sunnyvale, USA). […]
Give bare numbers, in %.

// known answers, use as guide
INSERT INTO measurements (compound, recorded_number) VALUES
  ('CN(C)C(c1cccc(F)c1)C1CCC(CNC(=O)COCCN(C)S(=O)(=O)c2cccc(C(F)(F)F)c2)CC1 (stereo not shown)', 38),
  ('COc1ccc(S(=O)(=O)N(C)CCOCC(=O)NCC2CCC(C(CCc3ccccc3)N(C)C)CC2)cc1OC (stereo not shown)', '−10'),
  ('COc1cc(C)c(S(=O)(=O)N2CCC(OCC(=O)NCCC3CCC(C(c4cccc(F)c4)N(C)C)CC3)CC2)c(C)c1C (stereo not shown)', 17),
  ('COc1cc(C)c(S(=O)(=O)N2CCC(OCC(=O)NC3CCC(C(c4ccc(F)cc4)N(C)C)CC3)C2)c(C)c1C (stereo not shown)', 48),
  ('COc1cc(C)c(S(=O)(=O)N(C)CCOCC(=O)NCC2CCC(C(c3ccc(F)cc3)N(C)C)CC2)c(C)c1 (stereo not shown)', 103),
  ('CN(C)C(c1cccc(F)c1)C1CCC(CNC(=O)COCCN(C)S(=O)(=O)c2ccc(OC(F)(F)F)cc2)CC1 (stereo not shown)', '−19'),
  ('CN(C)C(CCc1ccccc1)C1CCC(CNC(=O)COCCN2CCN(S(=O)(=O)c3ccccc3)CC2)CC1 (stereo not shown)', 10),
  ('CN(C)C(c1ccccc1)C1CCC(NC(=O)COCCN(C)S(=O)(=O)c2ccc(Cl)cc2)CC1 (stereo not shown)', 28),
  ('CN(C)C(CCc1ccccc1)C1CCC(CNC(=O)COCCN(C)S(=O)(=O)c2ccc(OC(F)(F)F)cc2)CC1 (stereo not shown)', 75),
  ('Cc1cc(C)c(S(=O)(=O)N2CCC(OCC(=O)NCCC3CCC(C(c4ccc(F)cc4)N(C)C)CC3)C2)c(C)c1 (stereo not shown)', 77);

Each compound below has a recorded value; state its B1R Ant. h [10 μM] % Inhibition.
1. COc1ccc(S(=O)(=O)N2CCC(OCC(=O)NCCC3CCC(C(c4cccc(F)c4)N(C)C)CC3)C2)cc1OC (stereo not shown)
2. COc1ccc(S(=O)(=O)N2CCCCC2COCC(=O)NCCC2CCC(C(c3ccc(F)cc3)N(C)C)CC2)cc1OC (stereo not shown)
3. CN(C)C(c1ccc(Cl)cc1)C1CCC(CCNC(=O)COCCC2CCN(S(=O)(=O)c3ccccc3)CC2)CC1 (stereo not shown)
4. CN(C)C(c1ccc(Cl)cc1)C1CCC(CNC(=O)COCCN(C)S(=O)(=O)c2c(Cl)cccc2Cl)CC1 (stereo not shown)
5. COc1ccc(S(=O)(=O)N2CCCC2COCC(=O)NCC2CCC(C(c3ccc(F)cc3)N(C)C)CC2)cc1 (stereo not shown)
6. CN(C)C(c1ccc(F)cc1)C1CCC(NC(=O)COCCN(C)S(=O)(=O)c2ccc(Cl)cc2Cl)CC1 (stereo not shown)
7. CN(C)C(c1ccc(Cl)cc1)C1CCC(CNC(=O)COC2CCCN(S(=O)(=O)c3ccccc3)C2)CC1 (stereo not shown)

−6
−8
2
104
38
92
2
